Origin of the recorded values: patent US20250388696A1

Experimental system: T1, mouse serum albumin (mouse, UniProt P07724 25-608)
T1 construct: also called MSA
Assay name: SPR, MSA immobilised
Where no end group is shown, it is not given here.
Measurement type: Kd

1. LAEAKVLALKELDKYGISNYYKNLINNAKTIEGVKALKDEIVAA (designed binder, not shown: small tags and cut ends, also: part of fusion protein, targeting moiety, linker, tag and order not given here, also called c20) [Fusion proteins with albumin binding domain of SEQ ID NO: 6]    < 10 nM

Alright, here's another binder for you.
# input binder: LAEAKVLALKELDKYGISNYYKNLINNAKTIESVKALKDEIVAA (designed binder, not shown: small tags and cut ends, also: part of fusion protein, targeting moiety, linker, tag and order not given here) [Fusion proteins with albumin binding domain c42 (SEQ ID NO: 34)] ; wanted: its Kd
≥ 100 nM
